Values from the supplement of paper PMC11451515

For each record, write down the corresponding cell viability.
tested on: SEM cells; assay: cell viability relative to DMSO control; higher = less cytotoxic; conditions: HPLM + 10% dialyzed FBS; 48 h; 0.00234 µM

input: GET /values?readout=cell viability&item= O=C(O)CCn1c2c(c3ccccc31)C[C@H](N[S+](=O)([O-])c1ccc(F)cc1)CC2
output: 115%

input: Using the record for Cc1[nH]c(/C=C2\C(=O)Nc3ccccc32)c(C)c1CCC(=O)O , report its cell viability.
output: 85.6%

input: I would be grateful if you could share the reported cell viability for CC(C)C[C@H](NC(=O)CNC(=O)c1cc(Cl)ccc1Cl)B(O)O .
output: 77.4%

input: // returns reported cell viability for input CN1CCCC(CC1)N2\N=C(CC3=CC=C(Cl)C=C3)/C4=C(C=CC=C4)C2=O (configuration not stated)
output: 110%

input: Data request, read-out cell viability, for COc1cc(OC)c(OC)cc1C=O
output: 111%

input: I'd like to know its cell viability. The molecule in question is CCC(=O)N[C@H]1CC[C@H](C(=O)N(C)c2ccc(-c3nc4ccccc4o3)cc2)C1
output: 68%

input: Given the molecule Nc1nnc(-c2cccc(Cl)c2Cl)c(N)n1 , what is its reported cell viability?
output: 80%

input: # lookup: cell viability of O=C\1N(N\C=C1[N]2C=CN=N2)C3=NC=NC(=C3)N4CCOCC4
output: 74.2%

input: So what's the measured cell viability for this one? Nc1ncnc2ccccc12
output: 87.9%

input: Any idea what cell viability was measured for COCCOc1nc(-c2ccc(Cl)c(Cl)c2)n(-c2ccc(NC(=O)CCl)cc2)n1 ?
output: 95.4%

input: Quick one: cell viability for COC1=C2C[C@@H](C)C[C@H](OC)[C@H](O)[C@@H](C)/C=C(\C)[C@H](OC(N)=O)[C@@H](OC)/C=C/C=C(\C)C(=O)NC(=CC1=O)C2=O ?
output: 115%

input: Quick one: cell viability for CCCCCCCCCC(=O)N[C@@H](Cc1c[nH]c2ccccc12)C(=O)N[C@H](CC(N)=O)C(=O)N[C@@H](CC(=O)O)C(=O)N[C@@H]1C(=O)NCC(=O)N[C@@H](CCCN)C(=O)N[C@@H](CC(=O)O)C(=O)N[C@H](C)C(=O)N[C@@H](CC(=O)O)C(=O)NCC(=O)N[C@H](CO)C(=O)N[C@@H]([C@@H](C)CC(=O)O)C(=O)N[C@@H](CC(=O)c2ccccc2N)C(=O)O[C@@H]1C ?
output: 101%

input: Name the reported cell viability value associated with the molecule CCC\C1=C\C(=O)NC(=S)N1
output: 74.2%

input: Quick check: cell viability of O=C(Cc1ccc(-c2ccc(OCCN3CCOCC3)cc2)cn1)NCc1ccccc1 ?
output: 95.9%

input: Entry Nc1cc(C(F)(F)F)c(-c2cc(N3CCOCC3)nc(N3CCOCC3)n2)cn1 : reported cell viability = ?
output: 121%

input: Would you mind telling me what cell viability value was observed for CN1c2ccccc2C(=O)N2CCc3c([nH]c4ccccc34)C21 (configuration not stated) ?
output: 120%

input: Form field: reported cell viability of COC/1=C/C=C2\C(=C/C1=O)[C@H](CCC3=CC(=C(OC)C(=C23)OC)OC)NC(C)=O
output: 25.8%

###

test system: P12-Ichikawa; experiment: cell viability relative to DMSO control; higher = less cytotoxic; details: HPLM + 10% dialyzed FBS; 48 h; 0.00702 µM
MEASURED ENDPOINT: cell viability (%)
API: value field is a number in %; no unit string.

input: Param readout= cell viability; system= P12-Ichikawa; entry= CN(C)c1nc(Cc2ccc(NC(=O)c3ccc4ccccc4c3)cc2)nc(Cl)c1CC(=O)O ; returns value.
output: 101

input: Provide value of cell viability for this record tested with P12-Ichikawa: CC(C)c1cnn2c(NCc3ccccc3)cc(NCCCCCCN)nc12
output: 131

input: Write down the reported cell viability of CCC(=C/[C@H](C)C/C=C/C(C)=C/[C@@H](C)C(=O)[C@@H](C)[C@H](O)[C@@H](C)C/C(C)=C/C(=O)O)/C=C/[C@@H]1OC(=O)C=C[C@@H]1C , test system: P12-Ichikawa.
output: 116

input: Provide the documented cell viability with P12-Ichikawa as the system for CC[C@@]1(O)C(=O)OC\C2=C1\C=C\3N(CC4=C3N=C5C=CC=CC5=C4)C2=O
output: 107

input: State its cell viability on P12-Ichikawa: CC[C@H](C)C(=O)O[C@H]1C[C@H](O)\C=C2\C=C/[C@H](C)[C@H](CC[C@@H](O)C[C@@H](O)CC(O)=O)[C@@H]12
output: 105

input: P12-Ichikawa / cell viability / Nc1ncnc2ccccc12 : value?
output: 95.5

input: # returns recorded cell viability (system: P12-Ichikawa) for Cc1cc(Nc2nc(N[C@@H](C)c3ccc(F)cc3)c(C#N)cc2F)n[nH]1
output: 96.7

input: Enter reported cell viability observed with P12-Ichikawa for CC(O)(C#Cc1ccc2c(c1)N(c1nc(N)ncc1Cl)CC2)c1nccs1 (stereo not drawn)
output: 121
